Sourced from patent US20250215013A1

- target_system: recombinant poly(ADP-ribose) polymerase 1 (PARP1) (Homo sapiens (Human), UniProt P09874)
- Sequence (P09874 whole entry): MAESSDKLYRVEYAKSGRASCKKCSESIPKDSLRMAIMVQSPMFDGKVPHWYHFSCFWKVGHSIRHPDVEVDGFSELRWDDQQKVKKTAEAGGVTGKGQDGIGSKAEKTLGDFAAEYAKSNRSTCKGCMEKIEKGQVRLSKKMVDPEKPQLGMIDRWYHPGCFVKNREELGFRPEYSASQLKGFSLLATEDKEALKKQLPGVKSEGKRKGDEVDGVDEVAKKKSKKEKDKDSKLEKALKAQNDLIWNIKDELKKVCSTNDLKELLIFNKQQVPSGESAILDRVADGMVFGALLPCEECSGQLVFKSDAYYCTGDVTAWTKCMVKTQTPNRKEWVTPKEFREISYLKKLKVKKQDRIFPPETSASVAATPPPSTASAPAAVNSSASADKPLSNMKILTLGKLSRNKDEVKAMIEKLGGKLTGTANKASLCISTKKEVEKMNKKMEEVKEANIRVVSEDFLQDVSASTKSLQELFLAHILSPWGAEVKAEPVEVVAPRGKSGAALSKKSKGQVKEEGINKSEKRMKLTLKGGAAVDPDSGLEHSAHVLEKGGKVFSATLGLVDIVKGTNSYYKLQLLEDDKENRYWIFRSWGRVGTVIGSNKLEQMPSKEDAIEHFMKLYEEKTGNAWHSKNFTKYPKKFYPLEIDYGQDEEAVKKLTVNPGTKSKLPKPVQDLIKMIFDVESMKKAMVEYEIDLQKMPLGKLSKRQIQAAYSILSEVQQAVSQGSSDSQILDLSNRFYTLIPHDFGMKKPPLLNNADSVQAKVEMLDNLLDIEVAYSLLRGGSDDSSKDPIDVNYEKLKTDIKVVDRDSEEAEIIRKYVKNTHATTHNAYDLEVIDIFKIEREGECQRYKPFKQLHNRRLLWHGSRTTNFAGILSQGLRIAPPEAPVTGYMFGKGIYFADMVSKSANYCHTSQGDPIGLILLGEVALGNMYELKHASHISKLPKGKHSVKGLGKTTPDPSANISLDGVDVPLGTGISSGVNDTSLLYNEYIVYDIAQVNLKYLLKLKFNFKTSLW
parameter_measured: IC50 (nM)

* CNC(=O)c1ccc(N2CCN(Cc3ccc4c([nH]c(=O)c5cc(C)nn54)c3F)CC2)c(Cl)n1 | 0.5
* CNC(=O)c1ccc(N2CCN(Cc3cc4[nH]c(=O)c5c(F)cnn5c4cc3F)CC2)c(C)n1 | 0.28

(A) CNC(=O)c1ccc(N2CCN(Cc3ccc4c([nH]c(=O)n5c(C)cnc45)c3F)CC2)c(F)n1
(B) CNC(=O)c1ccc(N2CCN(Cc3ccc4c(c3)[nH]c(=O)c3c(C)noc34)CC2)c(C)n1
Task: Between these two entries, A and B , state which has the higher IC50. // respond with label for picked entry
Output: A

----------
- System: MDA-MB-436 cells
- experiment_summary: Growth inhibition assay against BRCA mutant human breast cancer MDA-MB-436 cell line (CCK-8)
- Type: cell-based
- condition_context: Homo sapiens, MDA-MB-436, […], proliferation of MDA-MB-436 cells, 7 days
parameter_measured: IC50 (µM)

- CNC(=O)c1ccc(N2CCN(Cc3ccc4c(c3)[nH]c(=O)c3c(F)cnn34)CC2)c(F)n1: 0.00104
- CNC(=O)c1ccc(N2CCN(Cc3ccc4c(c3)[nH]c(=O)c3c4ccn3C)CC2)c(C)n1: 0.0113
- CNC(=O)c1ccc(N2CCN(Cc3ccc4c(c3)[nH]c(=O)c3cn(C)cc34)CC2)c(C)n1: 0.00824
- CNC(=O)c1ccc(N2CCN(Cc3cc4[nH]c(=O)c5occc5c4cc3F)CC2)c(F)n1: 0.0055
- CNC(=O)c1ccc(N2CCN(Cc3ccc4c(c3)[nH]c(=O)c3cn(C)nc34)CC2)c(C)n1: 0.0032

(a) CNC(=O)c1ccc(N2CCN(Cc3ccc4c([nH]c(=O)c5cocc54)c3F)CC2)cn1
(b) O=C(NC1CC1)c1ccc(N2CCN(Cc3ccc4c([nH]c(=O)c5c(F)cnn54)c3F)CC2)c(F)n1
Task: Just tell me: smaller IC50 value, a or b ? Let me know the label of the one you choose.
Output: b

(1) CNC(=O)c1ccc(N2CCN(Cc3cc4[nH]c(=O)c5c(C)cnn5c4cc3F)CC2)c(C)n1
(2) CNC(=O)c1ccc(N2CCN(Cc3cc4[nH]c(=O)c5c(C)cnn5c4cc3F)CC2)c(F)n1
(3) CNC(=O)c1ccc(N2CCN(C(C)c3ccc4c([nH]c(=O)c5c(C)cnn54)c3F)CC2)c(F)n1 (stereo not drawn)
Task: Ascending sort, IC50. Give the labels in the order specified.
Output: 2, 3, 1
(2: 0.00802 µM, 3: 0.0121 µM, 1: 0.0203 µM)

----------
PDE3A (Homo sapiens (Human)) data, read-out IC50
Sequence (Q14432 whole entry): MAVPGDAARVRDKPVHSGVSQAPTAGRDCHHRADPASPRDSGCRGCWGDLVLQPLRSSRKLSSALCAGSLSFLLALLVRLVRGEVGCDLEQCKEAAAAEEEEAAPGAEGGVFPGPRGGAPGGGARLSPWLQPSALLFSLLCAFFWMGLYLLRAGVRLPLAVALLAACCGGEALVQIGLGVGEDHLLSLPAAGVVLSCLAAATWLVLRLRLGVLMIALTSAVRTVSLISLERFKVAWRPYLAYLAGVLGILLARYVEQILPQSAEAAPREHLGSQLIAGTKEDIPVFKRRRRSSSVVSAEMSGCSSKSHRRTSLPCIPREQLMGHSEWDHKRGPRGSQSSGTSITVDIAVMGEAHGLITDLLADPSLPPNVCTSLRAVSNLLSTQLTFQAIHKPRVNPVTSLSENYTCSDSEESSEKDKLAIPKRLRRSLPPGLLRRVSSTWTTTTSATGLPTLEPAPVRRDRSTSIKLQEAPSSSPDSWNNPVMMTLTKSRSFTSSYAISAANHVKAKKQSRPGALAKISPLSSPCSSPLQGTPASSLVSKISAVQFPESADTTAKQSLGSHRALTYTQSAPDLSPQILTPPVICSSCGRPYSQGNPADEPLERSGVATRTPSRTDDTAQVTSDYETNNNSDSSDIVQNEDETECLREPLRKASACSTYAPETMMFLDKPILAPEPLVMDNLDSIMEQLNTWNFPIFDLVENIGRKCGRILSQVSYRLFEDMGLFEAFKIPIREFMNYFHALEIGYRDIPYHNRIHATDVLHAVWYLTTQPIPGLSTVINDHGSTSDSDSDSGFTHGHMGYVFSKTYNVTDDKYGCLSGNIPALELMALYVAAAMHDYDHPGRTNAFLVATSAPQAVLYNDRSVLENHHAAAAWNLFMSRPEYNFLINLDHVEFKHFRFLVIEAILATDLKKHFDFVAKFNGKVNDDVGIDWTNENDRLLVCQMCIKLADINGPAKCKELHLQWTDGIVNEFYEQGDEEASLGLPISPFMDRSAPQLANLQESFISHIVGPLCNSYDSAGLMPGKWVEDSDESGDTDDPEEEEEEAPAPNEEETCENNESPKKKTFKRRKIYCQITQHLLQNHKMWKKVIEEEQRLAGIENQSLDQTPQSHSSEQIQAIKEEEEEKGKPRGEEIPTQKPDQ

See these solved cases before continuing.
* CCNC(=O)c1ccc(N2CCN(Cc3ccc4c([nH]c(=O)c5c(F)cnn54)c3F)CC2)c(F)n1 | > 30 µM
* CNC(=O)c1ccc(N2CCN(Cc3ccc4c([nH]c(=O)c5c(F)cnn54)c3F)CC2)c(F)n1 | > 30 µM
* CNC(=O)c1ccc(N2CCN(Cc3ccc4c([nH]c(=O)c5c(C)cnn54)c3F)CC2)c(C#N)n1 | > 30 µM
* CNC(=O)c1ccc(N2CCN(Cc3cc4[nH]c(=O)c5occc5c4cc3F)CC2)c(F)n1 | > 30 µM

Okay, next one:
Task: Look up IC50: [2H]C([2H])([2H])NC(=O)c1ccc(N2CCN(Cc3ccc4c([nH]c(=O)c5c(C)cnn54)c3F)CC2)c(F)n1
Output: > 30 µM

----------
- target_system: recombinant poly(ADP-ribose) polymerase 2 (PARP2)
- experiment_summary: PARP2 chemiluminescent assay
- Assay type: biochemical
- condition_context: inhibition of PARP2 enzyme activity, chemiluminescence
parameter_measured: IC50 (nM)

Past entries and their recorded results:
- CNC(=O)c1ccc(N2CCN(Cc3ccc4c([nH]c(=O)n5nccc45)c3F)CC2)c(C)n1: 1830
- CNC(=O)c1ccc(N2CCN(Cc3ccc4c([nH]c(=O)c5c(F)cnn54)c3F)CC2)c(F)n1: 462
- CNC(=O)c1ccc2c(n1)OC[C@H]1CN(Cc3ccc4c([nH]c(=O)c5c(C)cnn54)c3F)CCN21: 397
- CNC(=O)c1ccc(N2CCN(Cc3ccc4c(c3)[nH]c(=O)c3cn(C)nc34)CC2)c(C)n1: 3280
- CNC(=O)c1ccc(N2CCN(Cc3cc4[nH]c(=O)c5cn(C)nc5c4cc3F)CC2)c(C)n1: 3410
- CNC(=O)c1ccc(N2CCN(Cc3ccc4c(c3)[nH]c(=O)c3cocc34)CC2)c(F)n1: 166
- CNC(=O)c1ccc(N2CCN(Cc3cc(F)c4c(c3)[nH]c(=O)c3cncn34)CC2)c(Cl)n1: 648
- CNC(=O)c1ccc(N2CCN(Cc3ccc4c([nH]c(=O)c5c(C(F)(F)F)cnn54)c3F)CC2)c(F)n1: 67.1

(1) CNC(=O)c1ccc(N2CCN(Cc3ccc4c([nH]c(=O)n5ccnc45)c3F)CC2)c(F)n1
(2) CNC(=O)c1ccc(N2CCN(Cc3ccc4c([nH]c(=O)c5c(Cl)c(C)nn54)c3F)CC2)c(F)n1
Task: Which has the higher IC50, 1 or 2 ? I would appreciate it if you answered with the label of your choice.
Output: 1

(P) CNC(=O)c1ccc(N2CCN(Cc3ccc4c([nH]c(=O)c5c(F)cnn54)c3F)CC2)c(C)n1
(Q) CNC(=O)c1ccc(N2CCN(Cc3cc4[nH]c(=O)n5nccc5c4cc3F)CC2)c(F)n1
(R) CNC(=O)c1ccc(N2CCN(Cc3ccc4c([nH]c(=O)c5c(F)cnn54)c3F)CC2)c(Cl)n1
(S) CNC(=O)c1ccc(N2CCN(Cc3cc(F)c4c(c3)[nH]c(=O)c3cncn34)CC2)c(F)n1
Task: Provide the items ranked by increasing IC50. Lab note: record answer as labels in requested order.
Output: S, Q, R, P
(S: 469 nM, Q: 683 nM, R: 1390 nM, P: 2820 nM)

(P) CNC(=O)c1ccc(N2CCN(Cc3ccc4c([nH]c(=O)c5c(C)cnn54)c3F)C[C@H]2C)c(F)n1
(Q) CNC(=O)c1ccc(N2CCN(Cc3ccc4c(c3)[nH]c(=O)c3occc34)CC2)c(F)n1
(R) CNC(=O)c1ccc(N2CCN(Cc3ccc4c([nH]c(=O)c5cocc54)c3F)CC2)c(F)n1
(S) CNC(=O)c1ccc(N2CCN(Cc3ccc4c([nH]c(=O)c5c(C)cnn54)c3F)CC2)c(C#N)n1
Task: Order the records so the highest IC50 appears first and the lowest last. Enter labels, ranked according to the request.
Output: S, P, R, Q

----------
- System: MDA-MB-436 cells
- experiment_summary: Growth inhibition assay against BRCA mutant human breast cancer MDA-MB-436 cell line (CCK-8)
- Format: cell-based
- condition_context: Homo sapiens, MDA-MB-436, […], proliferation of MDA-MB-436 cells, 7 days
parameter_measured: IC50 (nM)

Example cases with answers are listed next.
- CNC(=O)c1ccc(N2CCN(Cc3ccc4c(c3)[nH]c(=O)c3occc34)CC2)cn1 [Example 113]: 2.19
- CNC(=O)c1ccc(N2CCN(Cc3ccc4c(c3)[nH]c(=O)c3nc[nH]c34)CC2)c(C)n1 [Example 25]: 61.8

(1) CNC(=O)c1ccc(N2CCN(Cc3cc(F)c4c(c3)[nH]c(=O)c3c(F)cnn34)CC2)c(F)n1 [Example 177]
(2) CNC(=O)c1ccc(N2CCN(Cc3ccc4c([nH]c(=O)n5nccc45)c3F)CC2)c(F)n1 [Example 73]
Task: Could you check which of 1 and 2 has a smaller value for IC50? Reply with the label of the item you choose.
Output: 1

----------
- Test system: MDA-MB-436 cells
- experiment_summary: Growth inhibition assay against BRCA mutant human breast cancer MDA-MB-436 cell line (CCK-8)
- Type: cell-based
- condition_context: Homo sapiens, MDA-MB-436, […], proliferation of MDA-MB-436 cells, 7 days
parameter_measured: IC50 (nM)

# annotated cases, reported IC50 shown
- CNC(=O)c1ccc(N2CCN(Cc3ccc4c([nH]c(=O)c5c(C)cnn54)c3F)CC2)c(Cl)c1: 66.5
- CNC(=O)c1ccc(N2CCN(Cc3ccc4c([nH]c(=O)c5cnn(C)c54)c3F)CC2)c(F)n1: 3.48
- CNC(=O)c1ccc(N2CCN(Cc3ccc4c(c3)[nH]c(=O)c3ncoc34)CC2)c(C)n1: 1.15
- CNC(=O)c1ccc(N2CCN(Cc3ccc4c([nH]c(=O)c5c(C)cnn54)c3C)CC2)c(F)n1: 14.4
- CNC(=O)c1ccc(N2CCN(Cc3ccc4c([nH]c(=O)c5occc54)c3F)CC2)c(C(F)F)n1: 23

(a) CNC(=O)c1ccc(N2CCN(Cc3cc(F)c4c(c3)[nH]c(=O)c3sccc34)CC2)c(C)n1
(b) CNC(=O)c1ccc(N2CCN(Cc3ccc4c([nH]c(=O)c5occc54)c3C)CC2)c(F)n1
Task: a or b : whose IC50 is greater? Identify your selection by its label.
Output: b
